Molecular target: UniProtKB Q13627
quantity: IC50

**Q:** # input compound: O=c1oc2cc(O)ccc2c2ccc(O)cc12 ; wanted: its IC50
**A:** 909 nM
